Assay Details: Oral bioavailability in dog at 10 mg/kg
Format: ADME, organism-based, Canis lupus familiaris
Cond: in vivo
Observation Type: bioavailability (%)
One number for each entry, in %.

Data point: CN[C@@H]1CCN(c2nc(N)nc3c2oc2ncc(Cl)cc23)C1 ; bioavailability = 91

====

Assay Details: AUC in rat at 2 mg/kg, iv
Format: ADME, organism-based
Design: dose 2 mg/kg, route intravenous
Cond: plasma
Observation Type: AUC
Answer shape: numeric part, then the unit.

Data point: CN[C@@H]1CCN(c2nc(N)nc3c2oc2ncc(Cl)cc23)C1 ; AUC = 1.6 µM·h

====

Assay Details: Volume of distribution at steady state in dog at 2 mg/kg, iv
Type: ADME, organism-based, Canis lupus familiaris
Design: dose 2 mg/kg, route intravenous
Cond: in vivo, read-out: Vdss
Observation Type: Vd
Answer shape: numeric part, then the unit.

Data point: CN[C@@H]1CCN(c2nc(N)nc3c2oc2ncc(Cl)cc23)C1 ; Vd = 16.5 L/kg

====

Tested System: Histamine H4 receptor (Homo sapiens, UniProt Q9H3N8)
Sequence (Q9H3N8 whole entry): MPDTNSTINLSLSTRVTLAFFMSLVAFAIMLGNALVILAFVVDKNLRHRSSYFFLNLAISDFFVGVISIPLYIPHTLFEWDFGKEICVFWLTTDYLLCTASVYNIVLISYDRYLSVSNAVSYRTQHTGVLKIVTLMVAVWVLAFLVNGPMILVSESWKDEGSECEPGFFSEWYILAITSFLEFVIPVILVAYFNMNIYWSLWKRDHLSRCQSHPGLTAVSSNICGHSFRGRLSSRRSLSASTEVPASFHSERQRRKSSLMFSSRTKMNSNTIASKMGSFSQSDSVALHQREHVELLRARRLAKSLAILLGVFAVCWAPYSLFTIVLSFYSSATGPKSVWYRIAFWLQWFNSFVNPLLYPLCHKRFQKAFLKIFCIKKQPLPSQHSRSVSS
Assay Details: Displacement of [3H]histamine from recombinant human histamine H4 receptor
pKi: −log10 of the molar value.
Observation Type: pKi

I would be grateful if you could provide pKi for each of the following entries.
1. Cc1csc2c(N3CCN(C)CC3)ncnc12
2. Cc1csc2c(N3CCCN(C)CC3)ncnc12
3. CN(C)C1CCN(c2ncnc3c2sc2ccccc23)CC1
4. CN(C)C1CCN(c2ncnc3c2sc2ccccc23)C1 (centres undefined)

## Output
1. < 6.69
2. < 5.00
3. < 5.00
4. < 5.00
